# Test system: OVCAR-8 ovarian
# test name: NCI tumour cell line growth inhibition, 48 h
measured quantity: log10 TGI (log10 of the value in µM)
The common logarithm of TGI in µM is what is listed.

In the examples that follow, each entry is paired with its recorded log10 TGI.
- molecule: "CCCCCCCCCCC(CN(CC)CC)C(O)c1ccccc1 (configuration not stated)"
  log10 TGI: 0.77
- molecule: "COc1cc(C(=O)OC2CC(C)=CC[C@@]3(C)CC[C@](O)(C(C)C)C23)ccc1O (some centres not stated)"
  log10 TGI: 1.56
- molecule: "CO[C@H]1/C=C/C[C@H](C)[C@@H](C)S(=O)(=O)NC(=O)c2ccc3c(c2)N(C[C@@H]2CC[C@H]21)C[C@@]1(CCCc2cc(Cl)ccc21)CO3"
  log10 TGI: 1.16
- molecule: "NC(N)=N/N=C(/c1ccccc1)c1ccc(O)cc1O"
  log10 TGI: 1.77
- molecule: "CCNC(=O)CCCCC(=O)c1c(C)[nH]c(/C=C2\\N=C(c3ccc[nH]3)C=C2OC)c1C"
  log10 TGI: 0.89

Give the reported value of log10 TGI for this record: CC[C@@]1(O)C(=O)OCc2c1cc1n(c2=O)Cc2c-1nc1ccccc1c2/C=N\NC(=O)C(N)=O
1.57

Give the reported value of log10 TGI for this record: CCCCCC/C=C\CCCCCCCCCc1c(O)c(OC)cc(O)c1CN(C)C
1.38

Give the reported value of log10 TGI for this record: COC(=O)C1=C2Nc3ccccc3C23CCN2C(O)C4(CC5CC67CCOC6CCN6CCC8(c9cccc(OC)c9N(C4)C58O)C67)C4OCCC4(C1)C23 (configuration not stated)
1.79

Give the reported value of log10 TGI for this record: Cc1ccc2oc(=O)cc(C3c4ccc([nH]4)C(c4cc(=O)oc5ccc(C)cc45)c4ccc([nH]4)C(c4cc(=O)oc5ccc(C)cc45)c4ccc([nH]4)C(c4cc(=O)oc5ccc(C)cc45)c4ccc3[nH]4)c2c1 (configuration not stated)
0.18

* * *

# System: NCI-H522 lung
# test name: NCI tumour cell line growth inhibition, 48 h
Property: GI50; scope: individual compounds

In the examples that follow, each entry is paired with its recorded GI50.
- compound: "c1ccc([P+](CCC[P+](c2ccccc2)(c2ccccc2)c2ccccc2)(c2ccccc2)c2ccccc2)cc1"
  target entity: "NCI-H522 lung"
  GI50: "3530 nM"
- compound: "c1cc(-c2cnn3nc(N4CCOCC4)ccc23)nc(NC2CC2)n1"
  target entity: "NCI-H522 lung"
  GI50: "13500 nM"
- compound: "O=C(Nn1c2c(sc1=NC1CC1)C(=O)c1ccccc1C2=O)c1cc2ccc1CCc1ccc(cc1)CC2"
  target entity: "NCI-H522 lung"
  GI50: "1600 nM"

Give the reported value of GI50 for this record: CN1CCN(c2ccc([N+](=O)[O-])c3no[n+]([O-])c23)CC1
115 nM

Give the reported value of GI50 for this record: CCN1CCN(c2cc(C)nc(NCc3cc(Nc4ccnc5cc(Cl)ccc45)ccc3F)n2)CC1
7210 nM

Give the reported value of GI50 for this record: COc1cc2c(cc1-c1c(C)noc1C)ncc1[nH]c(=O)n([C@H](C)c3ccccn3)c12
97.5 nM

Give the reported value of GI50 for this record: OCCCCC#Cc1ccccc1C#Cc1cccs1
18500 nM

Give the reported value of GI50 for this record: CCCCCCCCCCC(CN(CC)CC)C(O)c1ccccc1 (centres undefined)
1830 nM

Give the reported value of GI50 for this record: COc1ccc(-c2cc3nccn3c(Nc3ncccc3C(N)=O)n2)cc1OC
1180 nM

* * *

# System: OVCAR-5 ovarian
# test name: NCI tumour cell line growth inhibition, 48 h; in the data active = GI50 below about 0.43 µM; inactive = the rest
Valid outcomes are listed here; reply with one: 1 (yes) (active), 0 (no) (inactive)

Solved entries (count: 4):
- compound: "C=CC1=C(C)C(Cc2[nH]c(/C=c3\\[nH]/c(=C/C4=NC(=O)C(C)/C4=C\\C)c(C)c3CCC(=O)O)c(CCC(=O)OC)c2C)NC1=O (configuration not stated)"
  label class: "0 (no)"
- compound: "O=C1C(Cl)=C(Nc2ccc3c(c2NC2=C(Cl)C(=O)c4ccccc4C2=O)C(=O)c2ccccc2C3=O)C(=O)c2ccccc21"
  label class: "0 (no)"
- compound: "CCC[CH2][Sn]1([CH2]CCC)[O]CC([CH2][Sn]([c]2ccccc2)([c]2ccccc2)[c]2ccccc2)[O]1 (configuration not stated)"
  label class: "0 (no)"
- compound: "CC1(C)CC(O)CCCCCCOc2c(CN)cccc2NC(=O)c2nc(cnc2N)-c2ccc(cc2)S1(=O)=O (configuration not stated)"
  label class: "0 (no)"

Check the results log: what was the call for COc1cccc2cc(N(C)c3nc(C)nc4ccsc34)ccc12 ?
1 (yes)

Check the results log: what was the call for O=C1/C(=C\c2cn(CC(O)CN3CCCCC3)c3ccccc23)c2ccccc2N1c1c(Cl)cccc1Cl (configuration not stated) ?
0 (no)

Check the results log: what was the call for Cc1ccc2oc(=O)cc(C3c4ccc([nH]4)C(c4cc(=O)oc5ccc(C)cc45)c4ccc([nH]4)C(c4cc(=O)oc5ccc(C)cc45)c4ccc([nH]4)C(c4cc(=O)oc5ccc(C)cc45)c4ccc3[nH]4)c2c1 (configuration not stated) ?
1 (yes)

* * *

# Test system: UACC-62 melanoma
# test name: NCI tumour cell line growth inhibition, 48 h
Property: TGI; scope: individual compounds
Please respond with the number in µM and leave the unit unwritten.

- compound: "NCCCn1c2c(c3ccc([N+](=O)[O-])cc3c1=O)C(=O)c1cc(Cl)ccc1-2"
  TGI, µM: 0.0696
- compound: "CC1(C)CC(=O)C2=C(C1)N(c1ccccc1)C1(O)C=CC(=O)C3=C(O)c4ccccc4C(=O)C321 (stereo not given)"
  TGI, µM: 63.5
- compound: "ClC1=C(Cl)C(Cl)=C(Cl)C1=Cc1ccc(Cl)cc1Cl"
  TGI, µM: 0.495
- compound: "COc1cc(C2c3cc4c(cc3OC(N3CCOCC3)C2C)OCO4)cc(OC)c1OC (stereo not given)"
  TGI, µM: 56.5

Turning now to a further compound:
Give the reported value of TGI for this record: COc1ccc(C2c3c(-c4ccccc4)nn(-c4ccccc4)c3Oc3ncn(N)c(=N)c32)cc1OC (stereo not given)
3.72

* * *

# Test system: NCI-H522 lung
# test name: NCI tumour cell line growth inhibition, 48 h
Property: TGI; scope: individual compounds
Please respond with the number in µM and leave the unit unwritten.

In the examples that follow, each entry is paired with its recorded TGI.
- compound: "COc1cc(C(=O)/C=C/c2c(-c3cccs3)nc3ccccn23)cc(OC)c1OC"
  measured quantity: "TGI"
  value unit: "µM"
  data value: 2.38
- compound: "CCCCCC/C=C\\CCCCCCCCCc1c(O)c(OC)cc(O)c1CN(C)C"
  measured quantity: "TGI"
  value unit: "µM"
  data value: 3.25
- compound: "CN1CCN(c2ccc3nc(-c4ccc5nc(-c6ccc(N(C)CCCl)cc6)[nH]c5c4)[nH]c3c2)CC1"
  measured quantity: "TGI"
  value unit: "µM"
  data value: 0.0365
- compound: "C=CC1=C(C)C(Cc2[nH]c(/C=c3\\[nH]/c(=C/C4=NC(=O)C(C)/C4=C\\C)c(C)c3CCC(=O)O)c(CCC(=O)OC)c2C)NC1=O (configuration not stated)"
  measured quantity: "TGI"
  value unit: "µM"
  data value: 32

Give the reported value of TGI for this record: CC(C)[C@H](O)C(=O)N[C@H]1Cc2ccc3c(c2)[C@]24C5=C(N=C(O5)[C@H](C(C)C)NC1=O)c1nc(Cl)c(o1)-c1c(Cl)[nH]c5cccc(c15)-c1cccc2c1N[C@H]4O3
0.00562

Give the reported value of TGI for this record: CCC(C)N1CN(c2ccccc2)C2(CCN(CCCC(=O)c3ccc(F)cc3)CC2)C1=O (configuration not stated)
20.6

* * *

# Test system: OVCAR-3 ovarian
# test name: NCI tumour cell line growth inhibition, 48 h
Criterion: TGI meeting or surpassing 30 µM. Met: label 1. Not met: label 0.

Solved entries (count: 5):
- molecule: "O=C1/C(=C/c2ccc(C(F)(F)F)cc2)COc2ccc(O)cc21"
  target entity: "OVCAR-3 ovarian"
  label class: "label 0"
- molecule: "CC1(C)OCC(C2OC(=O)C(OCc3ccccc3)=C2OCc2ccccc2)O1 (stereo not given)"
  target entity: "OVCAR-3 ovarian"
  label class: "label 1"
- molecule: "O=C(NN1C(=O)C(Cl)C1c1ccc([N+](=O)[O-])cc1)c1ccccc1O (stereo not given)"
  target entity: "OVCAR-3 ovarian"
  label class: "label 1"
- molecule: "Oc1cccc2nc3cc(CN4CCOCC4)c(CN4CCOCC4)cc3nc12"
  target entity: "OVCAR-3 ovarian"
  label class: "label 1"
- molecule: "O=C(Nc1ccc([N+](=O)[O-])cc1)c1cc2ccccc2cc1O"
  target entity: "OVCAR-3 ovarian"
  label class: "label 0"

Please check the record CS(=O)(=O)OC1CCN(C2(c3cccc(O)c3)CCCCC2)CC1 and state if its TGI is at or above 30 µM.
label 1

Please check the record Cn1c(=O)c2[nH]cnc2n(CC(=O)O)c1=O and state if its TGI is at or above 30 µM.
label 1

Please check the record COc1cc(CCC(=O)NS(=O)(=O)c2ccccc2)cc(OC)c1OC and state if its TGI is at or above 30 µM.
label 1

Please check the record COC(=O)NN=C1C(C)(C)C(=NNC(=O)OC)C1(C)C and state if its TGI is at or above 30 µM.
label 1

Please check the record O=c1cc(-c2ccc[nH]2)[nH]c2cc3c(cc12)OCO3 and state if its TGI is at or above 30 µM.
label 1
